Assign protein stability index to each entry below.
B1: FCHO1 (parent)
chain: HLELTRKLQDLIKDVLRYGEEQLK

variants of: B1; assay: protein stability index of a GFP-peptide fusion (GPS, HEK-293T) (PSI 1-6); higher = more stable; settings: c terminus: a fixed tail appended;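 also: lentivirally expressed fusions sorted by FACS into six bins by GFP to DsRed ratio, PSI derived from sequencing read proportions per bin multiplied by bin number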
Numbers only.

// known answers, use as guide
{"constructSequence": "HLELTRKLQDLWKDVLRYGEEQLK", "protein stability index": 1.89}
{"constructSequence": "HLELTRKLQDLIKDVLQYGEEQLK", "protein stability index": 2.26}
{"constructSequence": "HLELTRKLQDLIKDVLRYGHEQLK", "protein stability index": 2.58}
{"constructSequence": "HLELTRWLQDLIKDVLRYGEEQLK", "protein stability index": 1.87}
{"constructSequence": "HLELTRKLQILIKDVLRYGEEQLK", "protein stability index": 3.93}

Respectfully, I request protein stability index for each entry included below.
1. HLELTRKLQDLIKDVLTYGEEQLK
2. HLELTQKLQDLIKDVLRYGEEQLK
3. HLELTRKDQDLIKDVLRYGEEQLK
4. HLELTRKFQDLIKDVLRYGEEQLK

Found:
1.54
1.86
4.04
2.29

Respectfully, I request protein stability index for each entry included below.
1. HLELTRKLQDLIKDVLPYGEEQLK
2. HLELTRKLQDLIKDPLRYGEEQLK
3. HLELTRKLQDLIKDVLRTGEEQLK
4. HLELTRKLQDLIKDVLRNGEEQLK
5. HTELTRKLQDLIKDVLRYGEEQLK

Found:
2.95
2.27
1.88
1.84
2.88
